TESTED ON: human F508del-CFTR (Homo sapiens, UniProt P13569, DEL508-508)
Sequence (P13569 with tags, fused parts or gaps DEL508-508): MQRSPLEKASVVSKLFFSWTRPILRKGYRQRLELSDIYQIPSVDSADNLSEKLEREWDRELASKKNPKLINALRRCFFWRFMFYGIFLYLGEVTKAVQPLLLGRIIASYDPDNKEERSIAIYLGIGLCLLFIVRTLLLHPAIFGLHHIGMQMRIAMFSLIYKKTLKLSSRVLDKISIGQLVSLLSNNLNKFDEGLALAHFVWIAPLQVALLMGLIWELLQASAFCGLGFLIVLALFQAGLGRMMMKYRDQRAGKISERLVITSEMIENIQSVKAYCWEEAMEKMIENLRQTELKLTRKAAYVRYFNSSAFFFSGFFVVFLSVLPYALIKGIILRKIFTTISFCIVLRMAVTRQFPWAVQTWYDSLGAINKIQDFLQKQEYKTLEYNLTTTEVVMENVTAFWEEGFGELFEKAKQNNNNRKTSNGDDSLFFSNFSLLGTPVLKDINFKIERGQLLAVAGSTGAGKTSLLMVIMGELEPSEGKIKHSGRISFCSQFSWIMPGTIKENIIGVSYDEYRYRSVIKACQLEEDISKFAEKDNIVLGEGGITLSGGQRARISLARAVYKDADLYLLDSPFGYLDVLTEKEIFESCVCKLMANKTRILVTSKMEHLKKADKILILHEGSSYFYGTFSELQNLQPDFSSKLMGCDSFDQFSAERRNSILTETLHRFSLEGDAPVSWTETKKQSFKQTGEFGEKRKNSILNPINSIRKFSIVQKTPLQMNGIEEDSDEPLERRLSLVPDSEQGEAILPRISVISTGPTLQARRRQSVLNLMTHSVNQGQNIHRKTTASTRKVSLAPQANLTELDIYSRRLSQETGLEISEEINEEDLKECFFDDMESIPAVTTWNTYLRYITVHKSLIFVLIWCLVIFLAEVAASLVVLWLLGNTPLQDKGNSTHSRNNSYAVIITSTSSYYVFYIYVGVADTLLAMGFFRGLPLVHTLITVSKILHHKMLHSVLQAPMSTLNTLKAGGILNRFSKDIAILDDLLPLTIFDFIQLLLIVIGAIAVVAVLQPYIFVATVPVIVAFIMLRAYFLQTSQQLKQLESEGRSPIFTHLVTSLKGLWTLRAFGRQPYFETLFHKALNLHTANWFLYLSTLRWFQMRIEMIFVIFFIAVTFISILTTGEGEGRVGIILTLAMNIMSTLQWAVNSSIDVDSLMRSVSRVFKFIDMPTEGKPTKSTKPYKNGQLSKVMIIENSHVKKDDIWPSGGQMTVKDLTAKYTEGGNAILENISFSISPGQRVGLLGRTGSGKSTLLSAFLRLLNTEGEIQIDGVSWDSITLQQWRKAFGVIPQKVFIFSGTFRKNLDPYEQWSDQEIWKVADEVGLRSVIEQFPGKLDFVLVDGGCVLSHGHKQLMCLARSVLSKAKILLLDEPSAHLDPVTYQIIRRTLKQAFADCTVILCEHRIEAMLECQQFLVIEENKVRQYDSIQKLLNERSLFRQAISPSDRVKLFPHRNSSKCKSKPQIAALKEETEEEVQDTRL
ASSAY OVERVIEW: F508del-CFTR cell surface expression (corrector activity), DiscoveRx ß-galactosidase complementation chemiluminescence assay in recombinant U2OS cell line;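 note: U2OS cells co-expressing ProLink-tagged F508del-CFTR and a membrane-anchored enzyme acceptor, where more surface CFTR restores β-galactosidase activity measured by chemiluminescence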
ASSAY CONTEXT: EC50, F508del-CFTR cell surface expression, U2OS cells, 16h compound incubation; geomean values
Consider the reported EC50 of an entry and match it to a band in low bin = under 200 nM, mid bin = from 200 nM up to 400 nM, high bin = 400 nM and over

# example entries with known answers
molecule=COc1nccc2c1C(=O)N[C@H](C(=O)NCCc1cc(C)no1)CC(=O)N(C)[C@@H](CC(C)C)C(=O)N1CCN(CC(C)C)C[C@@H]1C(=O)N[C@H](Cc1ccccc1)CO2 category_label="mid bin"
molecule=Cc1cc(CCNC(=O)[C@@H]2CC(=O)N(C)[C@@H](CC(C)C)C(=O)N(C)[C@H](CC3CCCCC3)C(=O)N[C@H](Cc3ccccc3)COc3cnc4ccccc4c3C(=O)N2)on1 category_label="low bin"
molecule=Cc1cc2ccc3c(c2o1)C(=O)N[C@H](C(=O)NCCc1noc(C2CC2)n1)CC(=O)N(C)[C@@H](CC(C)C)C(=O)N(C)C1(CC1)C(=O)N[C@H](Cc1ccccc1)CO3 category_label="mid bin"
molecule=CC(C)C[C@H]1C(=O)N(C)C2(CC2)C(=O)N[C@H](Cc2ccccc2)COc2cnc3ccccc3c2C(=O)N[C@H](C(=O)NCCc2cccc(-n3nccn3)c2)CC(=O)N1C category_label="high bin"
molecule=COc1cc(CCNC(=O)[C@@H]2CC(=O)N(C)[C@@H](CC(C)C)C(=O)N(C)[C@H](CC(F)(F)F)C(=O)N[C@H](Cc3ccccc3)COc3cc(C)nc(OC)c3C(=O)N2)on1 category_label="low bin"
molecule=COc1cccc(CCNC(=O)[C@@H]2CC(=O)N(C)[C@@H](CC(C)C)C(=O)N(CCC3CCCCC3)CC(=O)N[C@H](Cc3ccccc3)COc3ccncc3C(=O)N2)c1 category_label="mid bin"
molecule=COc1cccc(CCNC(=O)[C@@H]2CC(=O)N(C)[C@@H](CC(C)C)C(=O)N(C)CC(=O)N[C@H](Cc3ccccc3)COc3ccc4ncc(F)cc4c3C(=O)N2)c1 category_label="high bin"
molecule="COc1cccc(CCNC(=O)[C@@H]2CC(=O)N(C)[C@@H](CC(C)C)C(=O)N(C)[C@@H](COC(C)(C)C)C(=O)N[C@H](Cc3ccccc3)COc3ccc4ccccc4c3C(=O)N2)c1 (mixture of isomers)" category_label="low bin"
molecule="CC(C)C[C@H]1C(=O)N(C)[C@@H](CC2CCC(F)(F)CC2)C(=O)N[C@H](Cc2ccccc2)COc2cnc3ccc(F)cc3c2C(=O)N[C@H](C(=O)NCCc2noc(C3CC3)n2)CC(=O)N1C [Example 539]" category_label="low bin"
molecule=CC(C)C[C@H]1C(=O)N2CCCC[C@@H]2C(=O)N[C@H](Cc2ccccc2)COc2ccncc2C(=O)N[C@H](C(=O)NCCc2ccc3c(c2)OCCO3)CC(=O)N1C category_label="high bin"

Task: Band for the recorded EC50 of COc1cc2c(cn1)OC[C@@H](Cc1ccccc1)NC(=O)[C@H]1CCCCN1C(=O)[C@H](CC(C)C)N(C)C(=O)C[C@@H](C(=O)NCCc1cc(C3CC3)on1)NC2=O [Example 518] ?
Output: high bin

Task: Band for the recorded EC50 of CCOc1cccc(CCNC(=O)[C@@H]2CC(=O)N(C)[C@@H](CC(C)C)C(=O)N3CCN(CC4CC4)C[C@@H]3C(=O)N[C@H](Cc3ccccc3)COc3ccc4nc(C)oc4c3C(=O)N2)c1 ?
Output: mid bin

Task: Band for the recorded EC50 of CC(C)C[C@H]1C(=O)N2CCOC[C@@H]2C(=O)N[C@H](Cc2ccccc2)COc2ccc3ccccc3c2C(=O)N[C@H](C(=O)NCCc2cccc(C#N)c2)CC(=O)N1C ?
Output: mid bin

Task: Band for the recorded EC50 of COc1cccc(CCNC(=O)[C@@H]2CC(=O)N(C)[C@@H](CC(C)C)C(=O)N3CCN(c4ccccc4)C[C@H]3C(=O)N[C@H](Cc3ccccc3)COc3ccnc(OC)c3C(=O)N2)c1 ?
Output: low bin

Task: Band for the recorded EC50 of COc1nccc2c1C(=O)N[C@H](C(=O)NCCc1noc(C3CC3)n1)CC(=O)N(C)[C@@H](CC(C)C)C(=O)N(C)[C@@H](CCc1nc(-c3ccccc3)no1)C(=O)N[C@H](Cc1ccccc1)CO2 ?
Output: high bin

# credit: patent US20240208992A1
